Here's what we have: IC50 numbers for Cholinesterase (Equus caballus, UniProt P81908).
Give bare numbers, in nM.

The following compounds each have a reported value; give each one's IC50.
1. O=C(NCC(O)CNCc1ccccc1)C(c1ccccc1)c1ccccc1 (racemic)
2. COc1cccc(CNCC(O)CNC(=O)CC(c2ccccc2)c2ccccc2)c1 (racemic)

1: 2540; 2: 660

The following compounds each have a reported value; give each one's IC50.
1. COc1cccc(CNCC(O)CNC(=O)C(c2ccccc2)c2ccccc2)c1 (racemic)
2. CC(C)(C)c1ccc(CNCC(O)CNC(=O)C(c2ccccc2)c2ccccc2)cc1 (racemic)

[2180, 1120]
